# target: BLK (Homo sapiens, UniProt P51451)
# Sequence (P51451 whole entry): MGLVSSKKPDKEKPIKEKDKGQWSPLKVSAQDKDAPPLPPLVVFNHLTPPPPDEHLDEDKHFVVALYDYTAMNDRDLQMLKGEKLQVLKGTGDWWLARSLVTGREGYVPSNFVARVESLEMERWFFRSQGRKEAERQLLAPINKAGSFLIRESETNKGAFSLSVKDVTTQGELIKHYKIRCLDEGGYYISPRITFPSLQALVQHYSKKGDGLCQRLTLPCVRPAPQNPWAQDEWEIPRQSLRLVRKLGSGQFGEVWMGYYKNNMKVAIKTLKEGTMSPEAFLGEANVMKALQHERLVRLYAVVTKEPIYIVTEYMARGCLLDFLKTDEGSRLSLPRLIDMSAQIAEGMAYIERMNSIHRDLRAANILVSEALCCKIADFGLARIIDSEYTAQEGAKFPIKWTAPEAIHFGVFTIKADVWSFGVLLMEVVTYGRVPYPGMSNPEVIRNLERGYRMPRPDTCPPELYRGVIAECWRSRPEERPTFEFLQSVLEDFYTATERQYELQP
# experimentNotes: scanMAX binding POC, BLK
# testParameters: 1 μM
outcomeMeasure: BLK binding POC

# annotated cases, reported BLK binding POC shown
| compoundStructureString | BLK binding POC |
| --- | --- |
| C=CC(=O)N1CCC(c2ccc(C(N)=O)c(-c3ccc(Oc4ccccc4)cc3)n2)CC1 | 52% of control |
| C=CC(=O)N1CCC[C@@H](n2nc(-c3ccc(Oc4ccccc4)cc3)c3c(N)ncnc32)C1 | 0.25% of control |
| C=CC(=O)Nc1cccc(Oc2nc(Nc3ccc(N4CCN(C)CC4)cc3)nc3ccoc23)c1 | 0.85% of control |
| O=C(c1ccc(Oc2ccccc2)cc1Cl)c1c[nH]c2ncnc(N[C@@H]3CC[C@@H](CO)OC3)c12 | 0.3% of control |
| C[C@H]1CN(C2COC2)CCN1c1ccc(Nc2cc(-c3ccnc(N4CCn5c(cc6c5CC(C)(C)C6)C4=O)c3CO)cn(C)c2=O)nc1 | 60% of control |
| C=CC(=O)N1CCC([C@@H]2CCNc3c(C(N)=O)c(-c4ccc(Oc5ccccc5)cc4)nn32)CC1 | 0.3% of control |

BLK binding POC reported for this molecule "CC#CC(=O)N[C@H]1CCCN(c2c(F)cc(C(N)=O)c3[nH]c(C)c(C)c23)C1" : 3.2% of control

---

# target: BMX (Homo sapiens, UniProt P51813)
# Sequence (P51813 whole entry): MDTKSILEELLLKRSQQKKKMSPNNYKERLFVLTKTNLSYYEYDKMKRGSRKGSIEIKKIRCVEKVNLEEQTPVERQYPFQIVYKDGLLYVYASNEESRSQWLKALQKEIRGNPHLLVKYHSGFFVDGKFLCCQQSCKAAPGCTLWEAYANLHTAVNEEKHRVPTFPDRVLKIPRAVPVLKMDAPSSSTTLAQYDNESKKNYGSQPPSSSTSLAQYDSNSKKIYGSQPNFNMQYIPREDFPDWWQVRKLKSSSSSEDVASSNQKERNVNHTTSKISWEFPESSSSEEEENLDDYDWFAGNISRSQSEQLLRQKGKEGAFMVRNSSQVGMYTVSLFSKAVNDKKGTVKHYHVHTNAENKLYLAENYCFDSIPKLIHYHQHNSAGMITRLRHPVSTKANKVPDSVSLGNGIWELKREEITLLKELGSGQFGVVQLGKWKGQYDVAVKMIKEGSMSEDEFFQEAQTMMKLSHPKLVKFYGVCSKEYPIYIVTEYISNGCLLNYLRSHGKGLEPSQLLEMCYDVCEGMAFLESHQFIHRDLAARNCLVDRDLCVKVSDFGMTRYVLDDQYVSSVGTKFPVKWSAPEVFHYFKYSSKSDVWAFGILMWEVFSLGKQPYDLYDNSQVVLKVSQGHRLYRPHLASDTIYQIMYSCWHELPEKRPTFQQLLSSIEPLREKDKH
# experimentNotes: scanMAX binding POC, BMX
# testParameters: 1 μM
outcomeMeasure: BMX binding POC

Take a look at these entries with their results.
| compoundStructureString | value |
| --- | --- |
| C=CC(=O)Nc1cccc(Nc2nc(Nc3ccc(OCCOC)cc3)ncc2F)c1 | 10% of control |
| C=CC(=O)Nc1cccc(Oc2nc(Nc3ccc(N4CCN(C)CC4)cc3)nc3ccoc23)c1 | 12% of control |
| O=C(c1ccc(Oc2ccccc2)cc1Cl)c1c[nH]c2ncnc(N[C@@H]3CC[C@@H](CO)OC3)c12 | 8.5% of control |
| C=CC(=O)N1CCC(c2ccc(C(N)=O)c(-c3ccc(Oc4ccccc4)cc3)n2)CC1 | 27% of control |
| C=CC(=O)N1CCC[C@@H](c2ccc(C(N)=O)c3[nH]ccc23)C1 | 20% of control |

Reported BMX binding POC for "COc1ccc(F)cc1C(=O)NCc1ccc(-c2nn([C@@H](C)C(F)(F)F)c(N)c2C(N)=O)cc1" was 51% of control

BMX binding POC measured on "C=CC(=O)N1CCC[C@@H](n2c(=O)n(-c3ccc(Oc4ccccc4)cc3)c3c(N)nccc32)C1" = 11% of control

---

We begin with a simple list: items and their reported BTK binding POC.
# target: BTK (Homo sapiens, UniProt Q06187)
# Construct: host or cells: transiently transfected HEK293 cells
# Sequence (Q06187 whole entry): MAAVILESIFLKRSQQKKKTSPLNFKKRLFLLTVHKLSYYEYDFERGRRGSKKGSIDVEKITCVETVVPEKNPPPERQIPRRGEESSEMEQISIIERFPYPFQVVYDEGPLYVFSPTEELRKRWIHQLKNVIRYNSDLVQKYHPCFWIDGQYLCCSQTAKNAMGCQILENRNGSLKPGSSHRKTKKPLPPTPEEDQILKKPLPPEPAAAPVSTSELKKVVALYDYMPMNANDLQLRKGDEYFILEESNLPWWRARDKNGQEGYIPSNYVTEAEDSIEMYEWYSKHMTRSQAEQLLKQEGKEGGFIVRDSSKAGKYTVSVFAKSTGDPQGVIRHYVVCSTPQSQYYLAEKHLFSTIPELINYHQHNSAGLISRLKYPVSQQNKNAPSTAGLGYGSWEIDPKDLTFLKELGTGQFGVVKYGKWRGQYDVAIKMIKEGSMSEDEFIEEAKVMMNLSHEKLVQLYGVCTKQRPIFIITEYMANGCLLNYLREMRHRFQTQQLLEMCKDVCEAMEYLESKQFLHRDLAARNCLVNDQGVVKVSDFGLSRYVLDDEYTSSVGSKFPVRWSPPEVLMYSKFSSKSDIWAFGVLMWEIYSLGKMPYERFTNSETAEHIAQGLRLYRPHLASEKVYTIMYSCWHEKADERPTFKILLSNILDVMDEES
# experimentNotes: scanMAX binding POC, BTK
# testParameters: 1 μM; zero POC = competition comparable to positive control

# count of solved cases: 4
| compound | target | BTK binding POC |
| --- | --- | --- |
| C=CC(=O)N1CCC[C@@H](c2ccc(C(N)=O)c3[nH]ccc23)C1 [Elsubrutinib] | BTK (Homo sapiens, UniProt Q06187) | 0.1% of control |
| C=CC(=O)N(C)CCOc1c(N)ncnc1-c1cc(F)cc(NC(=O)c2ccc(C3CC3)cc2F)c1C [Remibrutinib] | BTK (Homo sapiens, UniProt Q06187) | 0.15% of control |
| C=CC(=O)Nc1cccc(Oc2nc(Nc3ccc(N4CCN(C)CC4)cc3)nc3ccoc23)c1 [Poseltinib] | BTK (Homo sapiens, UniProt Q06187) | 0.1% of control |
| COc1ccc(F)cc1C(=O)NCc1ccc(-c2nn([C@@H](C)C(F)(F)F)c(N)c2C(N)=O)cc1 [Pirtobrutinib] | BTK (Homo sapiens, UniProt Q06187) | 0% of control |

Sure, the documented BTK binding POC for O=C(c1ccc(Oc2ccccc2)cc1Cl)c1c[nH]c2ncnc(N[C@@H]3CC[C@@H](CO)OC3)c12 [Nemtabrutinib] is 0.6% of control

Lab note: measured BTK binding POC of CC#CC(=O)N1CC[C@@H](n2c(=O)n(-c3ccc(Oc4ccccc4)cc3)c3c(N)ncnc32)C1 [Tirabrutinib] was 0.35% of control

Per the records, this compound ( CC#CC(=O)N1CCC[C@H]1c1nc(-c2ccc(C(=O)Nc3ccccn3)cc2)c2c(N)nccn12 [Acalabrutinib] ) has BTK binding POC equal to 0.2% of control

Note to self: BTK binding POC recorded for CC#CC(=O)N[C@H]1CCCN(c2c(F)cc(C(N)=O)c3[nH]c(C)c(C)c23)C1 [Branebrutinib] was 0% of control

The compound listed as C=CC(=O)Nc1cccc(Nc2nc(Nc3ccc(OCCOC)cc3)ncc2F)c1 [Spebrutinib] has a reported BTK binding POC of 0% of control

---

# target: JNK2 (MAPK9) (Homo sapiens, UniProt P45984)
# Sequence (P45984 whole entry): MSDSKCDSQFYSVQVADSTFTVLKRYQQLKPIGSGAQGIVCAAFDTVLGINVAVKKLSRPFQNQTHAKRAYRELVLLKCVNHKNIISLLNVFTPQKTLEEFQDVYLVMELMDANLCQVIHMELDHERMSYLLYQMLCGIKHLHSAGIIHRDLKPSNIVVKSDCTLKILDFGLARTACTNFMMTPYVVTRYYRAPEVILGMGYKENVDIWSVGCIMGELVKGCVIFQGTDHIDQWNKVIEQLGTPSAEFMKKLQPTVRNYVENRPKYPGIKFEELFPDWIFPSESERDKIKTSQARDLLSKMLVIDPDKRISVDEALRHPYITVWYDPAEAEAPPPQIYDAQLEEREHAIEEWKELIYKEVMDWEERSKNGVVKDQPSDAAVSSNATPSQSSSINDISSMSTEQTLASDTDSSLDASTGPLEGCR
# experimentNotes: scanMAX binding POC, JNK2
# testParameters: 1 μM
# JNK2 (MAPK9) POC values compiled below

Reference set (4 entries):
| compoundStructureString | value |
| --- | --- |
| C=CC(=O)N1CCC(CNc2ncnc(N)c2-c2ccc(Oc3ccccc3)cc2)CC1 | 100% of control |
| C=CC(=O)N1CCC[C@@H](n2nc(-c3ccc(Oc4ccccc4)cc3)c3c(N)ncnc32)C1 | 78% of control |
| C=CC(=O)N1CCC[C@@H](n2c(=O)n(-c3ccc(Oc4ccccc4)cc3)c3c(N)nccc32)C1 | 83% of control |
| C=CC(=O)Nc1cccc(Oc2nc(Nc3ccc(N4CCN(C)CC4)cc3)nc3ccoc23)c1 | 100% of control |

Value of JNK2 (MAPK9) POC reported for the compound "C=CC(=O)Nc1cccc(Nc2nc(Nc3ccc(OCCOC)cc3)ncc2F)c1" is 8.4% of control

Sample "CC#CC(=O)N1CC[C@@H](n2c(=O)n(-c3ccc(Oc4ccccc4)cc3)c3c(N)ncnc32)C1" ; JNK2 (MAPK9) POC observed: 92% of control

Record summary for "C=CC(=O)N1CCC(c2ccc(C(N)=O)c(-c3ccc(Oc4ccccc4)cc3)n2)CC1" : reported JNK2 (MAPK9) POC = 100% of control

GET /value?item= "CC#CC(=O)N1CCC[C@H]1c1nc(-c2ccc(C(=O)Nc3ccccn3)cc2)c2c(N)nccn12" &field=JNK2 (MAPK9) POC returns 58% of control

// recorded JNK2 (MAPK9) POC for "C=CC(=O)N(C)CCOc1c(N)ncnc1-c1cc(F)cc(NC(=O)c2ccc(C3CC3)cc2F)c1C" : 99% of control

According to the records, this compound "C[C@H]1CN(C2COC2)CCN1c1ccc(Nc2cc(-c3ccnc(N4CCn5c(cc6c5CC(C)(C)C6)C4=O)c3CO)cn(C)c2=O)nc1" displays JNK2 (MAPK9) POC of 100% of control

Lookup result for "O=C(c1ccc(Oc2ccccc2)cc1Cl)c1c[nH]c2ncnc(N[C@@H]3CC[C@@H](CO)OC3)c12" ; measured JNK2 (MAPK9) POC: 100% of control

Data point: "COc1ccc(F)cc1C(=O)NCc1ccc(-c2nn([C@@H](C)C(F)(F)F)c(N)c2C(N)=O)cc1" ; JNK2 (MAPK9) POC = 94% of control

Value of measured JNK2 (MAPK9) POC for the entry "C=CC(=O)N1CCC([C@@H]2CCNc3c(C(N)=O)c(-c4ccc(Oc5ccccc5)cc4)nn32)CC1" : 95% of control

Item: "C=CC(=O)N1CCC[C@@H](c2ccc(C(N)=O)c3[nH]ccc23)C1" | JNK2 (MAPK9) POC: 91% of control

Form: compound = "CC#CC(=O)N[C@H]1CCCN(c2c(F)cc(C(N)=O)c3[nH]c(C)c(C)c23)C1" ; JNK2 (MAPK9) POC = 89% of control

---

Measured pKd accompanies every entry in the list below.
# target: wild-type BTK (Homo sapiens, UniProt Q06187)
# Construct: made in house; host or cells: transiently transfected HEK293 cells (unpurified extract)
# experimentNotes: KdELECT competition binding, wild-type BTK
# testParameters: ATP-independent in vitro binding, 25 °C; read-out: Kd for wild-type BTK
Please report pKd as the negative decimal logarithm of the molar concentration, giving only the number.

| molecule | outcomeMeasure | value |
| --- | --- | --- |
| C=CC(=O)Nc1cccc(Oc2nc(Nc3ccc(N4CCN(C)CC4)cc3)nc3ccoc23)c1 [Poseltinib] | pKd | 8.82 |
| C=CC(=O)N1CCC[C@@H](c2ccc(C(N)=O)c3[nH]ccc23)C1 [Elsubrutinib] | pKd | 8.54 |

Here is another molecule to look at.
The recorded pKd for entry COc1ccc(F)cc1C(=O)NCc1ccc(-c2nn([C@@H](C)C(F)(F)F)c(N)c2C(N)=O)cc1 [Pirtobrutinib] equals 9.09
